- Test system: Arabidopsis thaliana seed
- assay notes: Seed germination assay for testing Examples 29-46
- Type: in vivo
readout name: germination inhibition activity compared to (S)-ABA (in words)

compound	recorded measurement
CC1=C(C(C)(F)F)C(=O)CC(C)(C)C1(O)/C=C/C(C)=C\C(=O)O (racemic) [Example 39]	more active than (S)-ABA
CC1=C(C(F)(F)F)C(=O)CC(C)(C)C1(O)/C=C/C(C)=C\C(=O)O (racemic) [Example 45]	more active than (S)-ABA
CC1=C(C(C)F)C(=O)CC(C)(C)C1(O)/C=C/C(C)=C\C(=O)O (racemic) [Example 40]	more active than (S)-ABA

---

- Test system: Arabidopsis thaliana seed
- assay notes: Seed germination assay for testing Examples 29-46
- Assay type: in vivo
- Parameters: key: ++++: The 3′-substituted-derivatives were scored by potency relative to ABA.; (S)-ABA potency = +++.; ++: The 3′-substituted-derivatives were scored by potency relative to ABA.; +: The 3′-substituted-derivatives were scored by potency relative to ABA.; −− = no effect
- stated conditions: 0.16-40 μM in 6-well plates, 4 days after vernalization, compared with (S)-ABA
readout name: Arabidopsis seed germination inhibition potency

Known Arabidopsis seed germination inhibition potency results, listed for orientation:
compound	tested on	recorded measurement
CCC1=C(C)C(O)(/C=C/C(C)=C\C(=O)O)C(C)(C)CC1=O (racemic)	Arabidopsis thaliana seed	+++
CC1=C(C2CCC2)C(=O)CC(C)(C)C1(O)/C=C/C(C)=C\C(=O)O (racemic)	Arabidopsis thaliana seed	++
CC1=C(C(C)C)C(=O)CC(C)(C)C1(O)/C=C/C(C)=C\C(=O)O (racemic)	Arabidopsis thaliana seed	+
CCCC1=C(C)C(O)(/C=C/C(C)=C\C(=O)O)C(C)(C)CC1=O (racemic)	Arabidopsis thaliana seed	+++
CC1=C(C(F)F)C(=O)CC(C)(C)C1(O)/C=C/C(C)=C\C(=O)O (racemic)	Arabidopsis thaliana seed	+++
CC1=C(C2CC2)C(=O)CC(C)(C)C1(O)/C=C/C(C)=C\C(=O)O (racemic)	Arabidopsis thaliana seed	+++

Lookup: Observed Arabidopsis seed germination inhibition potency on Arabidopsis thaliana seed for CC1=C(C(C)F)C(=O)CC(C)(C)C1(O)/C=C/C(C)=C\C(=O)O (racemic) , please.
Found: ++++

Lookup: Observed Arabidopsis seed germination inhibition potency on Arabidopsis thaliana seed for CCCCC1=C(C)C(O)(/C=C/C(C)=C\C(=O)O)C(C)(C)CC1=O (racemic) , please.
Found: +

---

- Tested on: Arabidopsis thaliana seed
- assay notes: Seed germination assay for testing Examples 29-46
- Assay type: in vivo
- Parameters: key: ++++: The 3′-substituted-derivatives were scored by potency relative to ABA.; (S)-ABA potency = +++.; ++: The 3′-substituted-derivatives were scored by potency relative to ABA.; +: The 3′-substituted-derivatives were scored by potency relative to ABA.; −− = no effect
- stated conditions: 0.16-40 μM in 6-well plates, 4 days after vernalization, compared with (S)-ABA
readout name: Arabidopsis seed germination inhibition potency

molecule	recorded measurement
CC1=C(C(F)(F)F)C(=O)CC(C)(C)C1(O)/C=C/C(C)=C\C(=O)O (racemic)	++++
CC1=CC(=O)CC(C)(C)[C@@]1(O)/C=C/C(C)=C/C(=O)O [(S)-ABA, (S)-abscisic acid, reference compound]	+++
CC1=C(CC(F)(F)F)C(=O)CC(C)(C)C1(O)/C=C/C(C)=C\C(=O)O (racemic)	++
CC1=C(C(C)(F)F)C(=O)CC(C)(C)C1(O)/C=C/C(C)=C\C(=O)O (racemic)	++++

Now for a further molecule.
Lookup: If you can, please state the reported Arabidopsis seed germination inhibition potency value of CC1=C(C2CC2F)C(=O)CC(C)(C)C1(O)/C=C/C(C)=C\C(=O)O (racemic) .
Found: +++

Recorded values, source patent US9781930B2.
